Target: p110β/p85α (Homo sapiens, UniProt P42338)
Sequence (P42338 whole entry, species assumed): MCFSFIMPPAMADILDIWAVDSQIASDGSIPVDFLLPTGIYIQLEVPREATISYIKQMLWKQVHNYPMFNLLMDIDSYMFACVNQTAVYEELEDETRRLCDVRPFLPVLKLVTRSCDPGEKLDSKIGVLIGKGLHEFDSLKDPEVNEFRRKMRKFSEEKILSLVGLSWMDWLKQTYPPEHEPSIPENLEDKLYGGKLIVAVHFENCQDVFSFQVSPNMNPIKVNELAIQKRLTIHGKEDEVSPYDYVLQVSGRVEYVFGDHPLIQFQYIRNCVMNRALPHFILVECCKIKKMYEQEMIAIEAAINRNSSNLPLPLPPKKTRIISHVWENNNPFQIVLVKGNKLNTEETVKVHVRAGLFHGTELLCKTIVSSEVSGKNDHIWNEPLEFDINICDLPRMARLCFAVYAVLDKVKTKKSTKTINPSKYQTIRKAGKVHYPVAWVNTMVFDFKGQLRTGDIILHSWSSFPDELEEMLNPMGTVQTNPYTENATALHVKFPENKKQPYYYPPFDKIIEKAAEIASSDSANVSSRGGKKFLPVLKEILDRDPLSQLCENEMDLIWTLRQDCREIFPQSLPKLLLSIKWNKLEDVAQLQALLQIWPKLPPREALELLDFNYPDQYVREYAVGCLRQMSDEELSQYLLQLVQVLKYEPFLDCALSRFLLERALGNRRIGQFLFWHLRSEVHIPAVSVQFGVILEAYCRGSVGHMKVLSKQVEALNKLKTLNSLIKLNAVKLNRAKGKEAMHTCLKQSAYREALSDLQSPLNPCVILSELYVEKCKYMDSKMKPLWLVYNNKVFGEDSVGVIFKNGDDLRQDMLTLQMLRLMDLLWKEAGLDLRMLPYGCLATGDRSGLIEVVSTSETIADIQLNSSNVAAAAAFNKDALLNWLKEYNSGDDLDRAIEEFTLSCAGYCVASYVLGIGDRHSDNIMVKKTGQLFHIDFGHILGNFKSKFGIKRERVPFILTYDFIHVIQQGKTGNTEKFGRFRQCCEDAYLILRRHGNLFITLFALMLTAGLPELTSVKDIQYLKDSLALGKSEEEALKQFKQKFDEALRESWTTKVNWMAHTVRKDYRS
Sequence (P27986 whole entry partner, species assumed): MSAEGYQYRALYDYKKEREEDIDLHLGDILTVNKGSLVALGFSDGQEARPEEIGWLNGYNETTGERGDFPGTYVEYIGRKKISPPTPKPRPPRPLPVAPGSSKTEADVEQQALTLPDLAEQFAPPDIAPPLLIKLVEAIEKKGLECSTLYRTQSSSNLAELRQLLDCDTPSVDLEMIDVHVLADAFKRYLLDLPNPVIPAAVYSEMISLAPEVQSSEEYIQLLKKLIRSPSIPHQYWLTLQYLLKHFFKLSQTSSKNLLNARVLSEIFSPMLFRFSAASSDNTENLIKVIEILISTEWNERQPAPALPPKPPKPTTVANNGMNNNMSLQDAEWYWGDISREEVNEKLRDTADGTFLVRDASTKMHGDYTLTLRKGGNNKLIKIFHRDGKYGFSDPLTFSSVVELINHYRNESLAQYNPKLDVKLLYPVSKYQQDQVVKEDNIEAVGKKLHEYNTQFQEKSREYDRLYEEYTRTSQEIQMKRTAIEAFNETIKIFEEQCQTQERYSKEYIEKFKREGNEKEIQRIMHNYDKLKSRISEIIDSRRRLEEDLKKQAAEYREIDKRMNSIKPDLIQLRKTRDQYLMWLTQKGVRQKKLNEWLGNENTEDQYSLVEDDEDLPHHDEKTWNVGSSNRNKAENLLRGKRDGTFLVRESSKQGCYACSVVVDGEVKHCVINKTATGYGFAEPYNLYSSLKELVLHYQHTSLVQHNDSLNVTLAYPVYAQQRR
Assay: Transcreener KINASE Assay, kinase inhibition of p110β/p85α
Details: read-out: PI3Kβ IC50
Each item that follows carries a reported pIC50.
Schema: pIC50 number; meaning minus log10 of the concentration expressed in molar units.

INSERT INTO measurements (compound, val) VALUES
  ('CC(Nc1nc(N)nc2c1C(=O)CCN2)c1cn2ccc(F)c2c(=O)n1-c1ccccc1 (single isomer, unassigned)', 7.17),
  ('C[C@H]1CCN(c2nc(N)ncc2C#N)C1c1nn2ccc(Cl)c2c(=O)n1-c1ccccc1 (stereo partly shown)', 7.09),
  ('CC(Nc1ncnc2[nH]cnc12)c1cn2ccc(Cl)c2c(=O)n1-c1ccc(F)cc1 (stereo not shown)', 7.59),
  ('N#Cc1c[nH]c2ncnc(N3CCC[C@H]3c3nn4ccc(C#N)c4c(=O)n3-c3ccccc3)c12', 6.61),
  ('CC(Nc1ncnc2[nH]cc(F)c12)c1cc2ncc(Cl)n2c(=O)n1-c1ccccc1 (single isomer, unassigned)', 7.38);

Give pIC50 for the following compound: C[S+]([O-])c1c[nH]c2ncnc(N3CCC[C@H]3c3nn4ccc(Cl)c4c(=O)n3-c3ccccc3)c12 (stereo partly shown) [Compound 187] 7.06

Give pIC50 for the following compound: C[C@H]1CCN(c2ncnc3[nH]cnc23)C1c1nn2ccc(Cl)c2c(=O)n1-c1ccccc1 (stereo partly shown) 7.30

====

Target: p110α/p85α (Homo sapiens, UniProt P42336)
Construct: purchased Invitrogen
Sequence (P42336 whole entry, species assumed, one chain of several): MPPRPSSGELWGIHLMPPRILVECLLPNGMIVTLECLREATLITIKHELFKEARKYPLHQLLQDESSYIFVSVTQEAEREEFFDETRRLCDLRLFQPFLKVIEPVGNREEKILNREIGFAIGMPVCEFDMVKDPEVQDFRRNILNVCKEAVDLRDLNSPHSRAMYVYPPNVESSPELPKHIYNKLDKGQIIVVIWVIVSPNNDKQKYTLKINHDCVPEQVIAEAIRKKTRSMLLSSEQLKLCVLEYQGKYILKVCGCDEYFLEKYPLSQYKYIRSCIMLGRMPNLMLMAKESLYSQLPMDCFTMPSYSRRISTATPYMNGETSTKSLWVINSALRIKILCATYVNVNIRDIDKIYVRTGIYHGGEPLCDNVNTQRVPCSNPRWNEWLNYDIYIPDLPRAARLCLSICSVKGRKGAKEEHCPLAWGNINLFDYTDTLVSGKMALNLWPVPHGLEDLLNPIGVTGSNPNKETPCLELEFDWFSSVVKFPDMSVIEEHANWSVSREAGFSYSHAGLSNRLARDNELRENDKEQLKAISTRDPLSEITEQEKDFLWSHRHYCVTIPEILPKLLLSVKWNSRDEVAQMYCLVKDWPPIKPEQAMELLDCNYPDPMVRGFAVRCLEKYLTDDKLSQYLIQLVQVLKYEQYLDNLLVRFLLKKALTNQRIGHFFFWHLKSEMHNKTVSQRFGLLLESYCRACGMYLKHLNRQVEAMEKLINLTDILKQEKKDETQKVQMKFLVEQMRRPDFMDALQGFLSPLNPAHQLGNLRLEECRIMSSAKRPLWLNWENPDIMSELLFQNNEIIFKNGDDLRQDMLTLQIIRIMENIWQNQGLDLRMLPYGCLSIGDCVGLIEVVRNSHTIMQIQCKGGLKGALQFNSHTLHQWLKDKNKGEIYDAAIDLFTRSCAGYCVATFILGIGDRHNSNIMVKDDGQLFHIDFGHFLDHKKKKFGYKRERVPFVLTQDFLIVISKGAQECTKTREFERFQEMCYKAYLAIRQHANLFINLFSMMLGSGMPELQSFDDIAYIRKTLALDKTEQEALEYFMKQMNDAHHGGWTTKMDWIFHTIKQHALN
Assay: Transcreener KINASE Assay, kinase inhibition of p110α/p85α
Assay type: biochemical
Details: @ 1 uM
Each item that follows carries a reported PI3Kα IH % @ 1 uM.
Give just the number in %; leave the unit off.

Worked cases, answers included:
INSERT INTO measurements (compound, quantity_name, val) VALUES
  ('N#Cc1c[nH]c2ncnc(N3CCC[C@H]3c3nn4cccc4c(=O)n3-c3ccccc3)c12 [Compound 1]', 'PI3Kα IH % @ 1 uM', 50.8),
  ('NC(=O)c1c[nH]c2ncnc(N3CCC[C@H]3c3nn4cccc4c(=O)n3-c3ccccc3)c12 [Compound 94]', 'PI3Kα IH % @ 1 uM', 36.3),
  ('N#Cc1c[nH]c2ncnc(N3CCC[C@H]3c3nn4cccc4c(=O)n3-c3cccc(Cl)c3)c12 [Compound 15]', 'PI3Kα IH % @ 1 uM', 24.6),
  ('N#Cc1c(N)ncnc1N1CCC[C@H]1c1nn2cccc2c(=O)n1-c1ccccc1 [Compound 5]', 'PI3Kα IH % @ 1 uM', 32.5),
  ('Nc1nc(N2CCC[C@H]2c2nn3cccc3c(=O)n2-c2ccccc2)c2nc[nH]c2n1 [Compound 2]', 'PI3Kα IH % @ 1 uM', 5.1);

Give PI3Kα IH % @ 1 uM for the following compound: N#Cc1c[nH]c2ncnc(N3CCC[C@H]3c3nn4ccc(C#N)c4c(=O)n3-c3ccccc3)c12 [Compound 113] 28.3

Give PI3Kα IH % @ 1 uM for the following compound: O=c1c2cccn2nc([C@@H]2CCCN2c2ncnc3[nH]cc(Cl)c23)n1-c1ccccc1 [Compound 3] 12.0

Give PI3Kα IH % @ 1 uM for the following compound: O=c1c2cccn2nc([C@@H]2CCCN2c2ncnc3[nH]cnc23)n1-c1ccccc1 [Compound 4] 2.6

Give PI3Kα IH % @ 1 uM for the following compound: C=Cc1c[nH]c2ncnc(N3CCC[C@H]3c3nn4cccc4c(=O)n3-c3ccccc3)c12 [Compound 98] 16.2

====

Molecular target: p110β/p85α (Homo sapiens, UniProt P42338)
Assay: Transcreener KINASE Assay, kinase inhibition of p110β/p85α
Conditions: read-out: PI3Kβ IC50
Quantity Name: IC50 (nM)
Give just the number in nM; leave the unit off.

Worked cases, answers included:
INSERT INTO measurements (compound, quantity_name, val) VALUES
  ('C[S+]([O-])c1c[nH]c2ncnc(N3CCC[C@H]3c3nn4ccc(Cl)c4c(=O)n3-c3ccccc3)c12 (stereo partly shown) [Compound 188]', 'IC50', 741),
  ('C[C@H]1CCN(c2ncnc3[nH]cc(C#N)c23)C1c1nn2ccc(Cl)c2c(=O)n1-c1ccccc1 (stereo partly shown)', 'IC50', 26);

Give IC50 for the following compound: `O=c1c2cccn2nc([C@@H]2CCCN2c2ncnc3[nH]cc(-c4cn[nH]c4)c23)n1-c1ccccc1` 147

====

Molecular target: p110γ (Homo sapiens, UniProt P48736)
Construct: purchased Invitrogen
Sequence (P48736 whole entry, species assumed): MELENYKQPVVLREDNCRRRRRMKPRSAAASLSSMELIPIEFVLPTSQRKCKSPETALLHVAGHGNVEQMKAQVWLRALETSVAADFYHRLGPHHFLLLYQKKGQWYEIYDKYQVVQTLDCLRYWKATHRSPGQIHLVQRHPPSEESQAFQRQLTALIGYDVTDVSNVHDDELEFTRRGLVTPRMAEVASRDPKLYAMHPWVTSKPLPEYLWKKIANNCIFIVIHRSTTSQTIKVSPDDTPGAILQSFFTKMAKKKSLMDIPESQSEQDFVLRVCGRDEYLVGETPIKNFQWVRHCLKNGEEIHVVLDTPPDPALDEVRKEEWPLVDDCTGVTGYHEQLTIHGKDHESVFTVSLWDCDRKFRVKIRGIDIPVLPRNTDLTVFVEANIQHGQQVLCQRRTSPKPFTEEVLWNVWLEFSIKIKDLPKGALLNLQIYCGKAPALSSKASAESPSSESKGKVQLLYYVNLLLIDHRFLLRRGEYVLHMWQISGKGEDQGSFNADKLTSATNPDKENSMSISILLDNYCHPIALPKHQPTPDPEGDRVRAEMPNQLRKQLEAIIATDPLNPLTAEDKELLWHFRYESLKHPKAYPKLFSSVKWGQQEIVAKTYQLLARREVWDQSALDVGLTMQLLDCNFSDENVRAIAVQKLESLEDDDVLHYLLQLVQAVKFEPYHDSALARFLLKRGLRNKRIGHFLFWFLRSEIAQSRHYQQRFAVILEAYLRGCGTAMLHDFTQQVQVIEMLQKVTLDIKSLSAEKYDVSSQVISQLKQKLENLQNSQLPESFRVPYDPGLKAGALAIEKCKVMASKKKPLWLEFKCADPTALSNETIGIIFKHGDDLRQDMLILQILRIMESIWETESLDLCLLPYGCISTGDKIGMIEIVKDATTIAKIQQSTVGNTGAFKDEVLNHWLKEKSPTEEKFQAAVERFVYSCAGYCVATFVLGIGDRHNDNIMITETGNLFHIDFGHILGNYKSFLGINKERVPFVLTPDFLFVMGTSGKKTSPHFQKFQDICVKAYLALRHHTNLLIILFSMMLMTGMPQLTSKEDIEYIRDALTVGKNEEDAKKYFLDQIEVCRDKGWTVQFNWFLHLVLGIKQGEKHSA
Assay: Transcreener KINASE Assay, kinase inhibition of p110γ
Format: biochemical
Conditions: @ 1 uM
Quantity Name: PI3Kγ IH % @ 1 uM (%)
Give just the number in %; leave the unit off.

Worked cases, answers included:
INSERT INTO assay_data (compound, val) VALUES
  ('O=c1c2cccn2nc([C@H]2CCCN2c2ncnc3[nH]cnc23)n1-c1ccccc1', 14.1),
  ('N#Cc1n[nH]c2ncnc(N3CCC[C@H]3c3nn4cccc4c(=O)n3-c3ccccc3)c12', 38.7),
  ('N#Cc1c[nH]c2ncnc(N3CCC[C@H]3c3nn4c(F)ccc4c(=O)[nH]3)c12', 41.1),
  ('O=c1c2cccn2nc([C@@H]2CCCN2c2ncnc3[nH]cnc23)n1-c1ccc(F)cc1', 78.1),
  ('N#Cc1cccc(-n2c([C@@H]3CCCN3c3ncnc4[nH]cc(C#N)c34)nn3cccc3c2=O)c1', 81.9);

// fetch PI3Kγ IH % @ 1 uM for `O=c1c2c(Cl)ccn2nc([C@@H]2CC(F)(F)CN2c2ncnc3[nH]cnc23)n1Cc1ccccn1` ; system: p110γ (Homo sapiens, UniProt P48736) 20.4

// fetch PI3Kγ IH % @ 1 uM for `N#Cc1c[nH]c2ncnc(N3CCC[C@H]3c3nn4cccc4c(=O)n3-c3cccc(F)c3)c12` ; system: p110γ (Homo sapiens, UniProt P48736) 87.3

// fetch PI3Kγ IH % @ 1 uM for `O=c1c2c(Cl)ccn2nc([C@@H]2CCCN2c2ncnc3[nH]ccc23)n1-c1ccccc1` ; system: p110γ (Homo sapiens, UniProt P48736) 100

// fetch PI3Kγ IH % @ 1 uM for `COc1cccc(-n2c([C@@H]3CCCN3c3ncnc(N)c3C#N)nn3cccc3c2=O)c1` ; system: p110γ (Homo sapiens, UniProt P48736) 75.7

// fetch PI3Kγ IH % @ 1 uM for `Nc1ncnc(N2CCC[C@H]2c2nn3cccc3c(=O)n2-c2ccccc2)c1Cl` ; system: p110γ (Homo sapiens, UniProt P48736) 53.2

// fetch PI3Kγ IH % @ 1 uM for `N#Cc1ccn2nc([C@@H]3CCCN3c3ncnc4[nH]cnc34)n(-c3ccccc3)c(=O)c12` ; system: p110γ (Homo sapiens, UniProt P48736) 96.4

// fetch PI3Kγ IH % @ 1 uM for `Nc1nc(N2CCC[C@H]2c2nn3cccc3c(=O)n2-c2ccccc2)c2nc[nH]c2n1` ; system: p110γ (Homo sapiens, UniProt P48736) 98.8

// fetch PI3Kγ IH % @ 1 uM for `Nc1nc(N2CCC[C@H]2c2nn3cccc3c(=O)n2-c2ccccc2)c2cc[nH]c2n1` ; system: p110γ (Homo sapiens, UniProt P48736) 59.5

// fetch PI3Kγ IH % @ 1 uM for `O=c1c2cccn2nc([C@@H]2CCCN2c2ncnc3[nH]nc(Br)c23)n1-c1ccccc1` ; system: p110γ (Homo sapiens, UniProt P48736) 27.9

====

Biological target: p110δ/p85α (Homo sapiens, UniProt O00329)
Construct: purchased Invitrogen
Sequence (O00329 whole entry, species assumed, one chain of several): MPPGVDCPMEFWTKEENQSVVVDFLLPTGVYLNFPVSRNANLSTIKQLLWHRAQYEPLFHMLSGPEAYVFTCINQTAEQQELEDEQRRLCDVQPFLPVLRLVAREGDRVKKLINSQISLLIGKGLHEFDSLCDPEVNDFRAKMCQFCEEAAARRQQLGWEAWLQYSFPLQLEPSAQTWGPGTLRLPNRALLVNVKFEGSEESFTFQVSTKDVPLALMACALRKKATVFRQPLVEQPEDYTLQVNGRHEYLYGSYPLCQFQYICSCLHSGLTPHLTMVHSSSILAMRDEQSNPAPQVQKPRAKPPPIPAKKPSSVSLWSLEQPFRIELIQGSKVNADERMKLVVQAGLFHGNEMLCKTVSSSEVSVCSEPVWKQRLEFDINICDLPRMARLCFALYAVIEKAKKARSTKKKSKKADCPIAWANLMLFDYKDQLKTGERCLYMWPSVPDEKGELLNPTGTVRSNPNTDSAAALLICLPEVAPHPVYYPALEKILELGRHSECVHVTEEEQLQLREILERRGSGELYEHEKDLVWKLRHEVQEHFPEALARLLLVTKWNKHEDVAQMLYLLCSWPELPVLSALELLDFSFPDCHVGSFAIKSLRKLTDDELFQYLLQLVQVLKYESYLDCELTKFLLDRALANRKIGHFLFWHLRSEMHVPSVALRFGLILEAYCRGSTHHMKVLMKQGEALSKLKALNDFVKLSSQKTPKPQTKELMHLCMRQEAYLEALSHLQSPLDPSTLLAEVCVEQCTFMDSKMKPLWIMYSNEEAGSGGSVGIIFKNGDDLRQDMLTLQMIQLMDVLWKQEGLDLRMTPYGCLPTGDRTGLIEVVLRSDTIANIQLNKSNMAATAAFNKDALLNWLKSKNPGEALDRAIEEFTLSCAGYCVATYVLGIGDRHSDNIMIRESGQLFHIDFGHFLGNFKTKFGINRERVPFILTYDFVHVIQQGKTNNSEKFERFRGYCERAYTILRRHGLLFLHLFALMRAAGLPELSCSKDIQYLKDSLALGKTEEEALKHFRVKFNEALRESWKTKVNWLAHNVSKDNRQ
Assay: Transcreener KINASE Assay, kinase inhibition of p110δ/p85α
Assay type: biochemical
Details: @ 1 uM
Quantity Name: PI3Kδ IH % @ 1 uM

INSERT INTO results (compound, val) VALUES
  ('COc1cccc(-n2c([C@@H]3CCCN3c3ncnc4[nH]cc(C#N)c34)nn3cccc3c2=O)c1', '>100%'),
  ('CC(Nc1ncnc2[nH]cc(C#N)c12)c1cc2cccn2c(=O)n1-c1ccccc1 (stereo not shown)', '92.7%'),
  ('N#Cc1c[nH]c2ncnc(N3CCC[C@H]3c3nn4cccc4c(=O)n3-c3ccccc3)c12', '97.8%');

--- query ---
Give PI3Kδ IH % @ 1 uM for the following compound: `Nc1nc(N2CCC[C@H]2c2nn3cccc3c(=O)n2-c2ccccc2)c2nc[nH]c2n1` 98.2%

====

Target: p110δ/p85α (Homo sapiens, UniProt O00329)
Experiment: Transcreener KINASE Assay, kinase inhibition of p110δ/p85α
Settings: read-out: PI3Kδ IC50
Each item that follows carries a reported IC50.
Give just the number in nM; leave the unit off.

Worked cases, answers included:
INSERT INTO measurements (molecule, uom, val) VALUES
  ('O=c1c2c(Cl)ccn2nc([C@@H]2COCCN2c2ncnc3[nH]cnc23)n1-c1ccccc1', 'nM', 11),
  ('CO/N=C(\C)c1c[nH]c2ncnc(N3CCC[C@H]3c3nn4ccc(Cl)c4c(=O)n3-c3ccccc3)c12', 'nM', 21),
  ('COc1ccc(-c2c(N)ncnc2N2CC[C@H]2c2nn3ccc(Cl)c3c(=O)n2-c2ccccc2)cn1', 'nM', 97),
  ('CC(Nc1ncnc(N)c1C#N)c1cn2ccc(Cl)c2c(=O)n1-c1cc(F)cc(F)c1 (centres unmarked)', 'nM', 6),
  ('C[S+]([O-])c1c[nH]c2ncnc(N3CCC[C@H]3c3nn4ccc(Cl)c4c(=O)n3-c3ccccc3)c12 (some centres unmarked)', 'nM', 5);

// fetch IC50 for CC(Nc1nc(N)ncc1C#N)c1cn2ccc(F)c2c(=O)n1-c1ccccc1 (single isomer, unassigned) ; system: p110δ/p85α (Homo sapiens, UniProt O00329) 1

// fetch IC50 for C[C@H]1CCN(c2ncnc3[nH]cc(C#N)c23)C1c1nn2ccc(Cl)c2c(=O)n1-c1ccccc1 (some centres unmarked) ; system: p110δ/p85α (Homo sapiens, UniProt O00329) 4

// fetch IC50 for CC(Nc1ncnc2[nH]cnc12)c1cn2ccc(Cl)c2c(=O)n1-c1cc(F)cc(F)c1 (centres unmarked) ; system: p110δ/p85α (Homo sapiens, UniProt O00329) 7

// fetch IC50 for CC(Nc1nc(N)nc2c1C(=O)CCN2)c1cn2ccc(F)c2c(=O)n1-c1ccccc1 (single isomer, unassigned) ; system: p110δ/p85α (Homo sapiens, UniProt O00329) 1
